- assaySystem: 5-HT2 receptor (Rattus norvegicus)
- Construct: A7r5 rat vascular smooth muscle cells; endogenous in cells; host or cells: A7r5 rat vascular smooth muscle cells
- Sequence (P14842 whole entry): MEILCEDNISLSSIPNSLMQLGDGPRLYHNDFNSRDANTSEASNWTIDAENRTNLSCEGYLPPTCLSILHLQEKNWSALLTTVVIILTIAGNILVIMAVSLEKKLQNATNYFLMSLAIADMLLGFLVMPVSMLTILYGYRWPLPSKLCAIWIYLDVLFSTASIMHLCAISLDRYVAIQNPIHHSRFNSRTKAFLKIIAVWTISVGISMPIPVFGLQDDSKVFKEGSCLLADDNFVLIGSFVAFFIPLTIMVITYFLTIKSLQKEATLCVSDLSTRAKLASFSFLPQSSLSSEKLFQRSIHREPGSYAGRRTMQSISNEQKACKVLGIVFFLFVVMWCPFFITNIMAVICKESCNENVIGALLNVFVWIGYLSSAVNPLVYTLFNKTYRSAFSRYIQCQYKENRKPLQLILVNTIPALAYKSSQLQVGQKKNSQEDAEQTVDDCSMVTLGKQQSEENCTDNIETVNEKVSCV
- test: 5-HT2 functional assay: phosphoinositide (PI) turnover
- Type: cell-based
- runConditions: [3H]inositol phosphates, A7r5 rat vascular smooth muscle cells; read-out: EC50, nM (SEM) 5-HT2 functional
Could you please report measured EC50 for the items listed next?
Give bare numbers, in nM.

As a guide, the following entries are already answered.
INSERT INTO measurements (compound, assaysystem, recordedmeasurement) VALUES
  ('COc1ccc2ccn(CC(C)N)c2c1.O=C(O)/C=C/C(=O)O (stereo not drawn) [fumarate]', '5-HT2 receptor (Rattus norvegicus)', 255),
  ('CC(N)Cn1ccc2cc(Cl)ccc21.O=C(O)/C=C/C(=O)O (stereo not drawn) [fumarate]', '5-HT2 receptor (Rattus norvegicus)', 1390);

The record that follows has no EC50 shown yet.
-- ask What value of EC50 has been reported for the following compound? CC(N)Cn1ccc2ccc(O)cc21.O=C(O)/C=C/C(=O)O (stereo not drawn) [fumarate]
-- reply 577

Numbers sourced from patent US20030114512A1.
